The following compounds are shown together with reported Cmax values.
Test: Pharmacokinetics of five iridoids in rat plasma after oral administration of PS extract (UHPLC-ESI-MS/MS)
Type: in vivo, SD (Sprague Dawley) rats
Conditions: male, Sprague-Dawley, rat, in vivo, po, 1 g/kg
QUANTITY: Cmax (ng/mL)

{"COMPOUND": "COc1ccc(/C=C/C(=O)O[C@H]2[C@@H]3C=CO[C@@H](O[C@@H]4O[C@H](CO)[C@@H](O)[C@H](O)[C@H]4O)[C@@H]3[C@@]3(CO)O[C@@H]23)cc1O [Minecoside, minecoside]", "VALUE_MEASURED": 21.1}
{"COMPOUND": "COc1cc(C(=O)O[C@H]2[C@@H]3C=CO[C@@H](O[C@@H]4O[C@H](CO)[C@@H](O)[C@H](O)[C@H]4O)[C@@H]3[C@@]3(CO)O[C@@H]23)ccc1O [Picroside-II]", "VALUE_MEASURED": 336}
{"COMPOUND": "O=C(/C=C/c1ccccc1)OC[C@H]1O[C@@H](O[C@@H]2OC=C[C@H]3[C@H](O)[C@@H]4O[C@]4(CO)[C@@H]23)[C@H](O)[C@@H](O)[C@@H]1O [Picroside-I]", "VALUE_MEASURED": 114}
